Provenance of the data: patent US20210380703A1

target: human ACVR2A (human, UniProt P27037 20-135, limits assumed); assay: ELISA; further: test concentration or dose not given here
Sequence (P27037 20-135 limits assumed): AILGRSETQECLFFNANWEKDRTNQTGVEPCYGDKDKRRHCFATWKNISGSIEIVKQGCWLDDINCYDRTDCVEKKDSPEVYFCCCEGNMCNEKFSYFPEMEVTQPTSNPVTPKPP
Answer each item with its documented optical density.
// return numeric value only (unit: OD, not printed)

Given item 376_B01 (antibody, V domains shown, VH/VL only) VH: EVQLLESGGGLVQPGGSLRLSCAASGFTFDSYSMNWVRQAPGKGLEWVAGINYNGGYTSYADSVKGRFTISRDNSKNTLYLQMNSLRAEDTAVYYCARSATWHDTHLDYWGQGTLVTVSS VL: DIQMTQSPSSLSASVGDRVTITCRASQSILTYVNWYQQKPGKAPKLVIYAATSRASGVPSRFSGSGSGTDFTLTISSLQPEDFATYYCQQSYNLPLTFGGGTKVEIK , the value recorded as its optical density is 3.28

Measured optical density of 367_F02 (antibody, V domains shown, VH/VL only) VH: EVQLLESGGGLVQPGGSLRLSCAASGFTFDSYSMNWVRQAPGKGLEWVANINYNGGYTSYADSVKGRFTISRDNSKNTLYLQMNSLRAEDTAVYYCARSATWHDTHLDYWGQGTLVTVSS VL: DIQMTQSPSSLSASVGDRVTITCRASQSIISYVNWYQQKPGKAPKLLIYAATSRHSGVPSRFSGSGSGTDFTLTISSLQPEDFATYYCQQSYESPLTFGGGTKVEIK : 2.38

The reported optical density of the binder 371_C09 (antibody, V domains shown, VH/VL only) VH: EVQLLESGGGLVQPGGSLRLSCAASGFTFDSYSMNWVRQAPGKGLEWVSGINYNGGYKSYADSVKGRFTISRDNSKNTLYLQMNSLRAEDTAVYYCARSATWHDTHLDYWGQGTLVTVSS VL: DIQMTQSPSSLSASVGDRVTITCRASQSILTYVNWYQQKPGKAPKLLIYAASSLQSGVPSRFSGSGSGTDFTLTISSLQPEDFATYYCQQSYDNPLTFGGGTKVEIK was 3.37
